Every entry's value here was drawn from PubChem BioAssay AID1195.

Test system: human maximum recommended daily dose, FDA database
Test: DSSTox (FDAMDD) FDA Maximum (Recommended) Daily Dose Database
Settings: TherapeuticCategory: vasodilator; Ca channel blocker; diuretic; hits give low values
propertyName: maximum recommended daily dose (mmol/kg-bw/day)

{"compound": "C1CCC(C(CC2CCCCN2)C2CCCCC2)CC1 (stereo unspecified)", "recordedMeasurement": 0.018}

====

Test system: human maximum recommended daily dose, FDA database
Assay: DSSTox (FDAMDD) FDA Maximum (Recommended) Daily Dose Database
Settings: TherapeuticCategory: mucolytic; corneal vulnerary; hits give low values
propertyName: maximum recommended daily dose (mmol/kg-bw/day)

{"structureSmilesString": "CC(=O)N[C@@H](CS)C(=O)O", "measurementTarget": "human maximum recommended daily dose, FDA database", "recordedMeasurement": 0.0613}

====

Tested on: human maximum recommended daily dose, FDA database
Assay: DSSTox (FDAMDD) FDA Maximum (Recommended) Daily Dose Database
Conditions: TherapeuticCategory: antibacterial; hits give low values
propertyName: maximum recommended daily dose (mmol/kg-bw/day)

{"structureSmilesString": "CC(=O)NS(=O)(=O)c1cc(N)ccc1S(=O)(=O)c1ccc(N)cc1", "recordedMeasurement": 0.17}
{"structureSmilesString": "NC[C@@H]1CC[C@@H](N)[C@@H](O[C@H]2[C@H](O)[C@@H](O[C@H]3O[C@H](CO)[C@@H](O)[C@H](N)[C@H]3O)[C@H](N)C[C@@H]2N)O1", "recordedMeasurement": 0.00664}
{"structureSmilesString": "Cc1onc(-c2c(Cl)cccc2Cl)c1C(=O)N[C@@H]1C(=O)N2[C@@H]1SC(C)(C)[C@@H]2C(=O)O", "recordedMeasurement": 0.0355}
{"structureSmilesString": "COc1cc(NS(=O)(=O)c2ccc(N)cc2)c(OC)nn1", "recordedMeasurement": 0.161}
{"structureSmilesString": "NC[C@H]1O[C@H](O[C@H]2[C@H](O)[C@@H](O[C@H]3O[C@H](CO)[C@@H](O)[C@H](N)[C@H]3O)[C@H](N)C[C@@H]2N)[C@H](N)[C@@H](O)[C@@H]1O", "recordedMeasurement": 0.031}
{"structureSmilesString": "N[C@@H]1CONC1=O", "recordedMeasurement": 0.164}
{"structureSmilesString": "NC(=O)c1cnccn1", "recordedMeasurement": 0.244}
{"structureSmilesString": "CC1=C(C(=O)O)N2C(=O)[C@@H](NC(=O)[C@H](N)c3ccccc3)[C@H]2SC1", "recordedMeasurement": 0.192}
{"structureSmilesString": "CN[C@@H]1[C@H](O)[C@H](NC)[C@H]2O[C@@]3(O)C(=O)C[C@@H](C)O[C@H]3O[C@@H]2[C@H]1O", "recordedMeasurement": 0.201}
{"structureSmilesString": "Nc1ccc(C(=O)O)c(O)c1", "recordedMeasurement": 1.31}

====

Tested on: human maximum recommended daily dose, FDA database
Assay: DSSTox (FDAMDD) FDA Maximum (Recommended) Daily Dose Database
Conditions: TherapeuticCategory: coenzyme; hits give low values
propertyName: maximum recommended daily dose (mmol/kg-bw/day)

{"structureSmilesString": "Nc1ncnc2c1ncn2[C@@H]1O[C@H](COP(=O)(O)OP(=O)(O)OP(=O)(O)O)[C@@H](O)[C@H]1O", "recordedMeasurement": 0.000394}

====

System: human maximum recommended daily dose, FDA database
Test: DSSTox (FDAMDD) FDA Maximum (Recommended) Daily Dose Database
Conditions: TherapeuticCategory: antihistaminic; hits give low values
propertyName: maximum recommended daily dose (mmol/kg-bw/day)

{"molecule": "COc1ccc(CN(CCN(C)C)c2ccccn2)cc1", "recordedMeasurement": 0.00438}
{"molecule": "CC(CN(C)C)CN1c2ccccc2S(=O)(=O)c2ccccc21 (configuration not stated)", "recordedMeasurement": 0.00202}
{"molecule": "c1ccc2c(c1)Sc1ccccc1N2CC1CN2CCC1CC2 (configuration not stated)", "recordedMeasurement": 0.000518}
{"molecule": "CC(C)(C)c1ccc(C(O)CCCN2CCC(C(O)(c3ccccc3)c3ccccc3)CC2)cc1 (configuration not stated)", "recordedMeasurement": 0.00424}
{"molecule": "CN(C)CCC(c1ccc(Cl)cc1)c1ccccn1 (configuration not stated)", "recordedMeasurement": 0.000484}
{"molecule": "O=C(O)COCCN1CCN(C(c2ccccc2)c2ccc(Cl)cc2)CC1 (configuration not stated)", "recordedMeasurement": 0.0432}
{"molecule": "CN(C)CCN(Cc1ccccc1)c1ccccn1", "recordedMeasurement": 0.0392}
{"molecule": "CC(C1=C(CCN(C)C)Cc2ccccc21)c1ccccn1 (configuration not stated)", "recordedMeasurement": 0.000342}
{"molecule": "Cc1ccc(/C(=C/CN2CCCC2)c2ccccn2)cc1", "recordedMeasurement": 0.0006}
{"molecule": "CN(C)CCOC(c1ccc(Cl)cc1)c1ccccn1 (configuration not stated)", "recordedMeasurement": 0.00138}
{"molecule": "Clc1ccc(C/C(=C\\CN2CCCC2)c2ccccc2)cc1", "recordedMeasurement": 0.00481}
{"molecule": "CN1CCC(OC(c2ccccc2)c2ccccc2)CC1", "recordedMeasurement": 0.00118}
